Taken from paper PMC6906431.

Assay: Sulforhodamine B (SRB) cytotoxicity assay
Settings: human, PC3 cells, Viability, without IR, log [concentration] μM 1.495
assayReadout: viability at 72 h, 31.3 µM (%)
Just the number please, in %, no unit attached.

Check the records and state viability at 72 h, 31.3 µM for Cn1c(=S)c2[nH]c(SCCN3CCOCC3)nc2n(C)c1=O [JA2131] 57.2

====

Test: Sulforhodamine B (SRB) cytotoxicity assay
Conditions: human, PC3 cells, Viability, +IR 7 Gy, log [concentration] μM 0.893
assayReadout: viability at 72 h, 7.8 µM

Check the records and state viability at 72 h, 7.8 µM for Cn1c(=S)c2[nH]c(SCCN3CCOCC3)nc2n(C)c1=O 103%
